assay name: chemical genetic growth profiling, strain panel (AID 1159580);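 note: tested at 20 µM; growth read once vehicle control cultures reached saturation at 30 °C; 1 = growth at the plate median or of vehicle wells; lower values mean less growth of the strain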
details: S. cerevisiae deletion strains, growth OD, locus YNL298W, strain CLA4 (second series), hits give low values
The whole screen tested about 5,500 compounds, of which about 2,000 (36%) were called active. Inconclusive results (about 18%) are left out. The list shows a part of the results.
result type: normalized growth
Quick one: just the number, no unit, thanks!

Answered cases to consult:
CN1c2ccccc2C(=O)NC1c1ccc([N+](=O)[O-])s1 (stereo not given): 1.01
CCOC(=O)Cn1c(=O)c(C#N)cn(C(C)C)c1=O: 1.04
CC(=O)c1cnn(-c2ccccc2)c1C: 1
Cc1ccc(CC(=O)O)cc1: 1.06

Now let's try a different one.
Return reported normalized growth; argument: Cc1nc(-c2ccc(S(=O)(=O)N3CCN(c4ncnc5scc(-c6ccccc6)c45)CC3)s2)cs1 1.03

----------
assay name: chemical genetic growth profiling, strain panel (AID 1159580)
details: S. cerevisiae deletion strains, growth OD, locus YEL003W, strain gim4, hits give low values
About 2,000 (36%) of roughly 5,500 compounds were called active. Another 18% or so got no clear call; they are omitted. Some of the results follow.
result type: normalized growth
Respond with the number and no other words.

CCNC(=O)CC[C@H](N)C(=O)O: 1.01

Sample COc1ccc(-c2coc3cc(OC)cc(OC)c3c2=O)cc1 — what was its normalized growth? 0.987

Would you mind telling me what normalized growth value was observed for CO/N=C(\C(=O)N[C@@H]1C(=O)N2C(C(=O)O)=C(CSc3nc(=O)c(O)nn3C)CS[C@H]12)c1csc(N)n1 ? 0.972

So what's the measured normalized growth for this one? CO/N=C(\C(=O)NC1C(=O)N2C(C(=O)O)=C(COC(N)=O)CSC12)c1ccco1 (stereo not given) 0.997

So what does the record say about normalized growth for COc1cc(-c2coc3cc(OC)c(OC)c(OC)c3c2=O)cc(OC)c1OC ? 0.992

normalized growth lookup needed for CC(=O)OC1CCC2(C)C(=CC=C3C2CCC2(C)C3CCC2C(C)/C=C/C(C)C(C)C)C1(C)C (stereo not given) , thanks. 1.03

May I ask what normalized growth has been recorded for O=C1C=C2C=C[C@@H]3C[C@@]2(O1)[C@H]1CCCCN31 ? 0.95

----------
assay name: chemical genetic growth profiling, strain panel (AID 1159580)
details: S. cerevisiae deletion strains, growth OD, locus YLL041C, strain sdh2, hits give low values
The whole screen tested about 5,500 compounds, of which about 2,000 (36%) were called active. Not shown: some 18% with an inconclusive outcome. This is one part of the list.
result type: normalized growth

Dear colleague, I am looking for the recorded normalized growth of the following compound: CC(C)NNC(=O)c1ccncc1 1.01 (inactive)

----------
normalized growth for assorted compounds
assay name: chemical genetic growth profiling, strain panel (AID 1159580)
details: S. cerevisiae deletion strains, growth OD, locus YOR231W, strain MKK1, hits give low values
About 2,000 (36%) of roughly 5,500 compounds were called active. About 18% were inconclusive and are not listed. The list shows a part of the results.
Response field accepts a number only; no unit should be typed.

Cc1ccc(C)c(OCCCC(C)(C)C(=O)O)c1: 0.803
Cc1nc(-c2ccc(S(=O)(=O)Nc3ccc(Br)cc3Cl)s2)cs1: 0.79
Nc1nc2ncc(=O)[nH]c2c(=O)[nH]1: 0.938

Need normalized growth, item C=C1CCC2C(CC2(C)C)C(=O)CCC1O (stereo unspecified) 0.994

// query normalized growth value for entry COc1ccc2c(c1OC)C(=O)OC2[C@H]1c2c(cc3c(c2OC)OCO3)CCN1C (stereo partly specified) 0.985

Which normalized growth is listed for O=C(O)c1ccccc1-c1c2cc(Br)c(=O)cc-2oc2[c]([Hg])c(O)c(Br)cc12 ? 0.345

Which normalized growth value is on record for O=C(O)c1ccccc1-c1c2cc(I)c(=O)c(I)c-2oc2c(I)c(O)c(I)cc12 ? 1.02

Which normalized growth is listed for COc1ccc([C@H]2Oc3cc(OC)cc(OC)c3C[C@H]2O)cc1 ? 1

Look up normalized growth for this compound: CCCCOC(=O)c1ccc(O)cc1 0.951

Can you share its normalized growth? I mean this compound: C=C1CCC(C2CC(=O)OC2=O)C(=O)CCC2C1CC2(C)C (stereo unspecified) 0.964

Dear colleague, I am looking for the recorded normalized growth of the following compound: C=CCSCC1Nc2cc(Cl)c(S(N)(=O)=O)cc2S(=O)(=O)N1 (stereo unspecified) 1.03

----------
assay name: chemical genetic growth profiling, strain panel (AID 1159580);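 note: tested at 20 µM; growth read once vehicle control cultures reached saturation at 30 °C; 1 = growth at the plate median or of vehicle wells; lower values mean less growth of the strain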
details: S. cerevisiae deletion strains, growth OD, locus YDR297W, strain sur2, hits give low values
Among all 5,500 compounds or so, about 2,000 (36%) were called active. Roughly 18% stayed inconclusive and do not appear here. This is one part of the list.
normalized growth values by entry
Just the number, please, no unit after it.

Nc1nc2ncc(=O)[nH]c2c(=O)[nH]1: 0.982
CC(C)NCC(O)COc1cccc2ccccc12 (stereo unspecified): 1.01
CC(C)NCC(O)c1cc(O)cc(O)c1 (stereo unspecified): 0.989
CCCCN1CCCCC1C(=O)Nc1c(C)cccc1C (stereo unspecified): 0.986
CC(C)NC[C@H](O)COc1cccc2ccccc12: 1.01

Fill blank: measured normalized growth of the molecule CC[N+](CC)(CC)CCOc1cccc(OCC[N+](CC)(CC)CC)c1OCC[N+](CC)(CC)CC is ____. 1.01

----------
assay name: chemical genetic growth profiling, strain panel (AID 1159580);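 note: tested at 20 µM; growth read once vehicle control cultures reached saturation at 30 °C; 1 = growth at the plate median or of vehicle wells; lower values mean less growth of the strain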
details: S. cerevisiae deletion strains, growth OD, locus YML016C, strain PPZ1
About 2,000 (36%) of roughly 5,500 compounds were called active. Another 18% or so got no clear call; they are omitted. Cut-off read from the data, not from the text of the source: active = normalized growth mostly below about 0.91 (no sharp cut-off); inconclusive = no clear call, values can overlap the other calls; inactive = mostly above about 0.92. Some of the results follow.
Outcomes you can answer with include only these: active, inactive

O=C(O)CN(CC(=O)O)Cc1cc2c(-c3ccccc3C(=O)O)c3cc(CN(CC(=O)O)CC(=O)O)c(=O)cc-3oc2cc1O: inactive

Hi team, can someone confirm the assay call for O=C(Cn1ccnc1[N+](=O)[O-])NCCO ? inactive

Per the records of this test, what outcome belongs to CC(C)(C)CC(C)(C)c1ccc(O)c(Cc2ccc(Cl)cc2Cl)c1 ? inactive

----------
assay name: chemical genetic growth profiling, strain panel (AID 1159580);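 note: tested at 20 µM; growth read once vehicle control cultures reached saturation at 30 °C; 1 = growth at the plate median or of vehicle wells; lower values mean less growth of the strain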
details: S. cerevisiae deletion strains, growth OD, locus YER110C
The campaign covered roughly 5,500 compounds. About 2,000 (36%) were called active. About 18% were inconclusive and are not listed. Cut-off read from the data, not from the text of the source: active = normalized growth mostly below about 0.91 (no sharp cut-off); inconclusive = no clear call, values can overlap the other calls; inactive = mostly above about 0.92. This is one part of the list.
Outcomes you can answer with include only these: true (1) for active, false (0) for inactive

Consider the worked cases shown below.
CCCC(=O)O[C@]1(C(=O)CO)CCC2[C@@H]3CCC4=CC(=O)CC[C@]4(C)C3[C@@H](O)C[C@@]21C (stereo not given in full): false (0)
Cc1cc(NC(=O)C2=C(O)c3ccccc3S(=O)(=O)N2C)no1: false (0)
O=C(O)CN(CC(=O)O)Cc1cc2c(-c3ccccc3C(=O)O)c3cc(CN(CC(=O)O)CC(=O)O)c(=O)cc-3oc2cc1O: false (0)
COC(=O)C(O)c1ccccc1 (stereo not given): false (0)
CO/N=C(\C(=O)N[C@@H]1C(=O)N2C(C(=O)O)=C(COC(C)=O)CS[C@H]12)c1csc(N)n1: false (0)
O=C1[C@H](CCC(O)c2ccc(F)cc2)[C@@H](c2ccc(O)cc2)N1c1ccc(F)cc1 (stereo not given in full): false (0)
CC(C(=O)O)c1ccc(C(=O)c2cccs2)cc1 (stereo not given): false (0)
C=C1CCC(C2CC(=O)OC2=O)C(=O)CCC2C1CC2(C)C (stereo not given): false (0)
Nc1nc2ncc(=O)[nH]c2c(=O)[nH]1: false (0)
CCN(CC)C(=O)c1cccc(C)c1: false (0)

# fetch the recorded call for O=S1OCC2C(CO1)C1(Cl)C(Cl)=C(Cl)C2(Cl)C1(Cl)Cl (stereo not given) here false (0)

What outcome does the record of this test show for COc1ccc2c(c1)CCC(c1ccccc1)=C2c1ccc(OCCN2CCCC2)cc1 ? true (1)

// param item: CO/N=C(\C(=O)NC1C(=O)N2C(C(=O)O)=C(COC(N)=O)CSC12)c1ccco1 (stereo not given) ; yields the recorded call true (1)

Recorded test call requested for COC(=O)[C@@H]1OC(=O)[C@H]2O[C@@]23[C@@]1(C)CCC1[C@@]2(C)CCC(=O)C(C)(C)C2C[C@@H](OC(C)=O)[C@]13C (stereo not given in full) false (0)

Could you kindly confirm the outcome this assay logged for NS(=O)(=O)c1cc2c(cc1Cl)NC(C(Cl)Cl)NS2(=O)=O (stereo not given) ? false (0)

Answer briefly: the call reported for NC[C@@H]1CC[C@@H](N)[C@@H](O[C@H]2[C@H](O)[C@@H](O[C@H]3O[C@H](CO)[C@@H](O)[C@H](N)[C@H]3O)[C@H](N)C[C@@H]2N)O1 in this assay. false (0)

Lab log entry: CC1(C)OC(=O)C=CC2(C)C1CC(O)C1(C)C2CCC2(C)C(c3ccoc3)OC(=O)C3OC321 (stereo not given) — outcome as called in the assay? false (0)

Which outcome was assigned to CC(C)COCC(CN(Cc1ccccc1)c1ccccc1)N1CCCC1 (stereo not given) in this test? false (0)

So what was the verdict on CC1(C)O[C@H]2[C@H](O)C[C@](O)(C(N)=O)C[C@H]2O1 in this test? false (0)

Look up the recorded call for CC(C)NNC(=O)c1ccncc1 in this test. false (0)
